Below, each of the sequences is paired with its reported log2 fold change of degron read counts value.
Target: T1, CRBN, Q96SW2;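 further: pooled lentiviral library of zinc finger degron-EGFP fusions in mCherry-positive Jurkat cells, FACS-sorted after compound exposure, with degron abundance counted by next-generation sequencing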
T1 chain: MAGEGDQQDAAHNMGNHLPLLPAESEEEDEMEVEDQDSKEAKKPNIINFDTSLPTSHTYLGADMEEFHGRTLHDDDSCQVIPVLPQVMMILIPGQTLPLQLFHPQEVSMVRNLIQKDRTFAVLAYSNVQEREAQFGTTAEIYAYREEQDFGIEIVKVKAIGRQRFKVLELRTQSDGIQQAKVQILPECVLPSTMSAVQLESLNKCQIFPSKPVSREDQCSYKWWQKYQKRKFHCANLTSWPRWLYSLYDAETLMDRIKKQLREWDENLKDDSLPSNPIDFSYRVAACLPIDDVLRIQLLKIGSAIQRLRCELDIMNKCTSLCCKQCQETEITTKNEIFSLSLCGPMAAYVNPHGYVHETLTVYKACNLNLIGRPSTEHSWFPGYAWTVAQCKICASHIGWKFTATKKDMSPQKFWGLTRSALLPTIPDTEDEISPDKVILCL
Test: log2 fold change of degron read counts, EGFP-low vs EGFP+ sorted cells (limma voom), compound-induced degradation; higher = more compound-induced degradation of the degron-EGFP fusion; degrons are variants of IKZF1/3 zinc finger 2; compound dose not given here
Conditions: Jurkat; 18 h; compound: compound 19 (5-tert-butyl-thalidomide)
In all, about 8,300 sequences were measured (“log2 fold change of degron read counts, EGFP-low vs EGFP+ sorted cells (limma voom), compound-induced degradation”: median about -1.1, highest 2% from about 3.2 on). This excerpt belongs to a sample that is enriched for the highest values.
Reported Endpoint: log2 fold change of degron read counts

INSERT INTO assay_data (seq_text, result) VALUES
  ('FMCDQCGAMFTQKGNLLRHIKL [46F_47M_49D_50Q_52G_53A_54M_55F_67L_, Q9UKT9]', -2.85),
  ('FICPICGAIFTQKGNLLRHIKL [46F_47I_49P_50I_52G_53A_54I_55F_67L_, Q9UKT9]', -1.09),
  ('FDCEVCGAYFTQKGNLLRHIKL [46F_47D_49E_50V_52G_53A_54Y_55F_67L_, Q9UKT9]', -0.638),
  ('FACPICGHTFTQKGNLLRHIKL [46F_47A_49P_50I_52G_53H_54T_55F_67L_, Q9UKT9]', -2.03),
  ('FFCSVCGHTFTQKGNLLRHIKL [46F_47F_49S_50V_52G_53H_54T_55F_67L_, Q9UKT9]', -1.42),
  ('FSCSVCGHQFTQKGNLLRHIKL [46F_47S_49S_50V_52G_53H_54Q_55F_67L_, Q9UKT9]', -2.44),
  ('LICEICGFRCTQKGNLLRHIKL [46L_47I_49E_50I_52G_53F_54R_55C_67L_, Q9UKT9]', 1.24);
